Test system: dopamine uptake by synaptosomes from rat brain
EXPERIMENT_NOTES: blockage of dopamine uptake by synaptosomes from rat brain
Type: biochemical
CONDITION_SET: Table 1, dopamine 0.2 μM
Description: This blockade is shown both in vitro with radioactive labelled compounds to determine the amount of monoamine uptake by synaptosomes from rat brain, and in vivo by a variety of methods. Among the physiologically active monoamines whose uptake is blocked by the compounds of this invention are included serotonin, norepinephrine and dopamine (3,4-dihydroxyphenylethylamine). […]
Measured Concentration in mcg./ml. that blocks 50% of amine uptake, Dopamine of individual entries

- MOLECULE: "CN(C)CCC(Oc1ccc2ccccc2c1)c1ccccc1 (stereo not shown)"
  READING: "> 100 µg/mL"
- MOLECULE: "CN(C)CCC(Oc1ccccc1Br)c1ccccc1 (stereo not shown)"
  READING: "5 µg/mL"
- MOLECULE: "CN(C)CCC(Oc1ccccc1C(C)(C)C)c1ccccc1 (stereo not shown)"
  READING: "> 100 µg/mL"
- MOLECULE: "CC(C)c1ccccc1OC(CCN(C)C)c1ccccc1 (stereo not shown)"
  READING: "> 100 µg/mL"
- MOLECULE: "CN(C)CCC(Oc1ccc(F)cc1F)c1ccccc1 (stereo not shown)"
  READING: "10 µg/mL"

Need Concentration in mcg./ml. that blocks 50% of amine uptake, Dopamine, item CCc1ccccc1OC(CCN(C)C)c1ccccc1 (stereo not shown)
> 100 µg/mL

# iterate: CCOc1ccccc1OC(CCN(C)C)c1ccccc1 (stereo not shown)
> 100 µg/mL

# iterate: CN(C)CCC(Oc1ccccc1)c1ccccc1 (stereo not shown)
.3 µg/mL

# iterate: CN(C)CCC(Oc1cccc(C(F)(F)F)c1)c1ccccc1 (stereo not shown)
> 100 µg/mL

# iterate: CN(C)CCC(Oc1ccccc1Cl)c1ccccc1 (stereo not shown)
.2 µg/mL
